# STUDY SYSTEM: human CYP11B2 (Homo sapiens, UniProt P19099)
# Sequence (P19099 25-503): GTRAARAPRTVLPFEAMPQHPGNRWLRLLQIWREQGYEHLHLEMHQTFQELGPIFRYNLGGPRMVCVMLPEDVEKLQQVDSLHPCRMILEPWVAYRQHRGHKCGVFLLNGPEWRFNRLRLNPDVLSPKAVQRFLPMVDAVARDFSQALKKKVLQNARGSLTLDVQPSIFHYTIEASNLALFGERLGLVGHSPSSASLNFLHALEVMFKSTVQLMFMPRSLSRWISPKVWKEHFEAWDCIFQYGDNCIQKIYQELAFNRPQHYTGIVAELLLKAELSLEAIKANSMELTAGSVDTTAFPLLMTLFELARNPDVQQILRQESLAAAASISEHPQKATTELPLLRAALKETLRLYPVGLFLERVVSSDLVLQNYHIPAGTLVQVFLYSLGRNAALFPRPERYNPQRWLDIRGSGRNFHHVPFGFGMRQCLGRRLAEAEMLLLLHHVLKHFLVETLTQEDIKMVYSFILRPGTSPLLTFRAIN
# PROTOCOL NOTES: G-402 cellular enzyme assay, human CYP11B2 (aldosterone release, HTRF)
# ASSAY SETUP: G-402 cells expressing human CYP11B2; 1 μM Deoxycorticosterone
REPORTED ENDPOINT: EC50 (nM)
Report the value in nM with no unit label.

So what does the record say about EC50 for `CN1C(=O)CCc2cc(-c3cncc(CNC(=O)c4ncccc4Cl)c3Cl)ccc21` ?
2

Try the compound `Cc1c(CN(C)C(=O)c2ncccc2Cl)cncc1-c1ccc2c(c1)CCC(=O)N2C`
10

Try the compound `CN1C(=O)CCc2cc(-c3cncc(N4CC5(CN(C(=O)OC(C)(C)C)C5)C4)c3)ccc21`
260

Try the compound `CN1C(=O)CCc2cc(-c3cncc(NCc4ccccc4)n3)c(F)cc21`
7

Attribution: patent US9260408B2
